Assignment: determine reported log10(koff) for the given binders.
Target: T1, Human VSIG4-L-His (human, UniProt Q9Y279 20-283)
T1 construct: long isoform ECD with His tag; also called hVSIG4-L
T1 sequence: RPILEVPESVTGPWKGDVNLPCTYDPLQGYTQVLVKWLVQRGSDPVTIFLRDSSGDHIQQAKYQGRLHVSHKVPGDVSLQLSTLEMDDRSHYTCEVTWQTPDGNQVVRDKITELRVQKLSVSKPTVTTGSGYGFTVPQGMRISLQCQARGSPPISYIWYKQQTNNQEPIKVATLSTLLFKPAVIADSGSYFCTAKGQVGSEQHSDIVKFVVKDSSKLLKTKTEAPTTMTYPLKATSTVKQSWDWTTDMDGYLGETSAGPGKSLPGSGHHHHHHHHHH
Test: SPR (Biacore T200), Fab P.E. 1:5 over immobilised antigen
# values: log10(koff), units s⁻¹

binder="15C03 mouse Fab (periplasmic extract) (Fab, V domains shown, mouse Fab with C-terminal His6-c-myc tag) VH: EVKLLESGPGLVKPSQSLSLTCTVTGYSITSDYAWNWIRQFPGNKLEWMGYISYSGSTRYNPSLKSRISITRDTSNNQFFLQLNSVTTEDTATYYCARSGYAAMDYWGQGTSVTVSS VL: ENVLTQSPAIMSASPGEKVTMTCRASSSVSSSYLHWYQQKSGASPKLWIYSTSNLASGVPARFSGSGSGTSYSLTISSVEAEDAATYYCQQYSGYPLTFGSGTKLEIK" experimental_value=-2.12
binder="16E03 mouse Fab (periplasmic extract) (Fab, V domains shown, mouse Fab with C-terminal His6-c-myc tag) VH: QVQLQQSGAELARPGASVKMSCKASGYTFTSYTMHWIKQRPGQGLEWIGYINPSSGHTYYNQKFKDKATLTPDKSSSTAYMQLTSLTSEDSAVYYCARRIPTAYAMDYWGQGTSVTVSS VL: EIQMTQSHKFMSTSVGDRVSITCKASQDVGTAVAWYQQKPGQSPKLLIYWASTRHTGVPDRFTGSGSGTDFTLTISNVQSEDLADYFCQQYSSYPLTFGAGTKLELK" experimental_value=-1.89
binder="15C04 mouse Fab (periplasmic extract) (Fab, V domains shown, mouse Fab with C-terminal His6-c-myc tag) VH: QIQLQESGPSLVRPSQTLSLTCSVTGDSITSGYWNWIRKFPGDKLEYLGYISYSGFTYYNPSLKSRISITRDTSKNQYYLQLNSVTTEDTATYYCASSYYGSSLGFPYWGQGTLVTVSA VL: DVVMTQTPLSLPVSLGDQASISCRSSQSLVHSNGNTYLHWYLQKPGQSPKLLIYKVSNRFSGVPDRFSGSGSGTDFTLKISRVEAEDLGVYFCSQSTHVPWTFGGGTKLEIK" experimental_value=-2.72
binder="15A06 mouse Fab (periplasmic extract) (Fab, V domains shown, mouse Fab with C-terminal His6-c-myc tag) VH: QVQMKQSGPSLVRPSQTLSLTCSVTGDSITSGYWNWIRKFPGDKFEYLGYISYSGFTYYNPSLKSRVSITRDTSKNQYYLQLHSVTTEDTATYYCASSKYGSSLGFPYWGQGTLVTVSA VL: DVVMTQTPLSLPVSLGDQASISCRSSQSLVHSNGNTYLHWYLQKPGQSPKLLIYKVSNRFSGVPDRFSGSGSGTDFTLKISRVEAEDLGVYFCSQSTHVPFTFGSGTKLEIK" experimental_value=-2.82
binder="14D12 mouse Fab (periplasmic extract) (Fab, V domains shown, mouse Fab with C-terminal His6-c-myc tag) VH: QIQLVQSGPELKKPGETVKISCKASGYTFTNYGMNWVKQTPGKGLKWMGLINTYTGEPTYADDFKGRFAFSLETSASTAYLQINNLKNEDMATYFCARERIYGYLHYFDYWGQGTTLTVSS VL: DVVMTQTPASLAVSLGQRATISCKASQSVDYDGDSYMNWYQQKPGQPPKLLIYAASNLESGIPARFSGSGSGTDFTLNIHPVEEEDAATYYCQQSNEDPRTFGGGTKLEIK" experimental_value=-2.20

Required: log10(koff), one value per binder below.
1. 12A08 mouse Fab (periplasmic extract) (Fab, V domains shown, mouse Fab with C-terminal His6-c-myc tag) VH: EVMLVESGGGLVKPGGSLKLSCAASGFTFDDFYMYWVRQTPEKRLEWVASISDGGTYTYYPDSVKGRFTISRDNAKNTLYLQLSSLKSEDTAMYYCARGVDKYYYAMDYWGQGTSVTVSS VL: QILLTQSPAIMSASPGEKVTITCSASSSVSYMHWFQQKPGTSPKLWIYSTSNLASGVPARFSGSGSGTSYSLTISRMEAEDAATYYCQQRSSYPLTFGAGTKLELK
2. 13H11 mouse Fab (periplasmic extract) (Fab, V domains shown, mouse Fab with C-terminal His6-c-myc tag) VH: QIQLVQSGPELKKPGETVKISCKASGYTFENFGMNWVKQAPGKGLKWMGWINTYTGEATYADDFKGRFAFSLETSASTAYLQINNLKNEDTATYFCARDGGFRHFDVWGAGTTVTVSS VL: ETTVTQSPASLSVATGEKVTIRCITSTDIDDDMNWYQQKPGEPPKLLISEGNTLRPGVPSRFSSSGYGTDFVFTIENMLSEDVADYYCLQSDNLPLTFGAGTKLELK

Data returned:
1. -1.89
2. -1.35
